The measurements presented in this section are drawn from a melting point compilation (Tetko et al.).

melting point by entry:

Below are worked cases with known answers.
Molecule: CC(=O)Nc1ccccc1OC(F)(F)F
melting point: 68 to 70 °C

Molecule: O=C(O)c1cccc2c1OCCO2
melting point: 189 to 191 °C

Molecule: O=Cc1cc([N+](=O)[O-])ccc1Sc1ccccn1
melting point: 109 to 110 °C

Molecule: COC(=O)CC(=O)c1ccc(C(=O)OC)cc1
melting point: 81 to 86 °C

Molecule: O=C(O)C1CCCN1 (stereo not drawn)
melting point: 228 to 233 °C

# context switch: different molecule, same melting point
Quick one: melting point for CCOC=C(C#N)S(=O)(=O)C(C)(C)C ?
103 to 105 °C

* * *

melting point by entry:

Below are worked cases with known answers.
Molecule: C/C=C/C(=O)N1C(=O)OC[C@@H]1Cc1ccccc1
melting point: 84 to 85 °C
--
Molecule: CCOC(=O)C(C)=P(c1ccccc1)(c1ccccc1)c1ccccc1
melting point: 157 to 159 °C

Quick one: melting point for O=C(CBr)c1cccc(Br)c1 ?
51 to 52 °C

* * *

melting point by entry:
All answers are understood in °C, so give the number only.

Below are worked cases with known answers.
Compound: N#Cc1cc2[nH]c(=O)c(=O)[nH]c2cc1[N+](=O)[O-]
melting point / °C: 300
--
Compound: Nc1cccc(-n2ccccc2=O)c1
melting point / °C: 182
--
Compound: O=[N+]([O-])/C=C/c1ccccc1
melting point / °C: 58
--
Compound: Cc1ccc(-c2cc(-c3ccccn3)nc(-c3ccccn3)c2)cc1
melting point / °C: 169
--
Compound: Nc1nc(O)cc(O)n1
melting point / °C: 300
--
Compound: CCOC(=O)C1=C(C)NC(C)=C(C(=O)OCC)C1c1ccco1
melting point / °C: 164
--
Compound: CC(C)(C)SSC(C)(C)C
melting point / °C: -5
--
Compound: Oc1ncccc1Br
melting point / °C: 187
--
Compound: CC(CCC(C(=O)O)C(C)C)C(=O)O (stereo unspecified)
melting point / °C: 104
--
Compound: COc1cc2ccc(N(C)S(=O)(=O)c3ccc(C)cc3)cc2[nH]1
melting point / °C: 203

Quick one: melting point for CCCn1c(C(=O)O)cc2c(=O)n(C)c(=O)n(C)c21 ?
139

Quick one: melting point for C#CC(C)(C)NC(=O)c1cc(Cl)cc(Cl)c1 ?
156

Quick one: melting point for CNC(=O)CCl ?
46

Quick one: melting point for NCc1ccc(Cl)nc1 ?
30

Quick one: melting point for CC(=O)C(c1ccccc1)c1ccccc1 ?
61

* * *

Quantity Kind: melting point

Below are worked cases with known answers.
Compound: O=Cc1ccc(N2CCCC2=O)cc1
melting point: 121 to 122 °C

Compound: O=Cc1ccc(SCc2ccco2)c([N+](=O)[O-])c1
melting point: 153 to 154 °C

Compound: COC(=O)c1cccnc1N
melting point: 84 to 86 °C

Compound: O=C=NC1CCC(N=C=O)CC1 (stereo unspecified)
melting point: 59 to 64 °C

Compound: COc1cc2c(cc1O)C(C)=NCC2
melting point: 182 to 185 °C

Quick one: melting point for O=C(Cc1ccccc1)c1cc2c(cc1Br)OCCO2 ?
142 to 144 °C

* * *

melting point by entry:

Below are worked cases with known answers.
Compound: COc1ccc(C=CC(=O)c2ccccc2)c(OC)c1
melting point: 69 to 70 °C
//
Compound: O=[N+]([O-])c1ccc(N=C=Nc2ccc([N+](=O)[O-])cc2)cc1
melting point: 166 to 168 °C
//
Compound: O=[N+]([O-])c1ccc(N2CCCCC2)cc1
melting point: 104 to 106 °C
//
Compound: CC(=O)/C(=N\Nc1cc(Cl)ccc1Cl)C(=O)C(F)(F)F
melting point: 83 to 85 °C
//
Compound: Cn1nc(-c2ccccc2)cc1C(=O)Cl
melting point: 88 to 89 °C

Quick one: melting point for CCOC(=O)N1CCC2(CC1)C(=O)N(CO)CN2c1ccccc1 ?
134 to 139 °C

Quick one: melting point for Cc1nc(NC(=O)NS(=O)(=O)c2cccs2)nc(Cl)c1C ?
201 to 203 °C

Quick one: melting point for O=[N+]([O-])c1ccc(OCC2CO2)cc1 (stereo not drawn) ?
54 to 55 °C

* * *

Quantity Kind: melting point

Below are worked cases with known answers.
Molecule: O=C(O)C1=NN(c2ccccc2)C(=O)C1=CC1C(=O)N(c2ccccc2)N=C1C(=O)O (stereo unspecified)
Result Value: 257 to 260 °C
//
Molecule: CC(C)(C)c1cc(N=Nc2cc(C(C)(C)C)cc(C(C)(C)C)c2O)c(O)c(C(C)(C)C)c1
Result Value: 246 to 247 °C
//
Molecule: O=C(O)Cc1ccc(C(=O)CCl)s1
Result Value: 101 to 104 °C
//
Molecule: CCC1C(C=NC(C)(C)C)=NC(C)(C)N1O (stereo unspecified)
Result Value: 103 to 105 °C
//
Molecule: O=C(O)/C=C/c1c[nH]c2ccccc12
Result Value: 184 to 187 °C

# context switch: different molecule, same melting point
Quick one: melting point for CC12CCC3C(CCC(CC(=O)O)C3(C)CC(=O)O)C1CCC2=O (stereo unspecified) ?
223 to 224 °C

* * *

melting point by entry:

Compound: OC1CSC(O)CS1 (centres undefined)
melting point: 108 to 145 °C
//
Compound: COc1cc(/C=C/[N+](=O)[O-])c([N+](=O)[O-])cc1OC
melting point: 168 to 169 °C
//
Compound: CCCCCCC(O)C1C2=C(CC(C(O)C3CC=CC(=O)O3)CC3=C(C(=O)OC3=O)C1O)C(=O)OC2=O (centres undefined)
melting point: 170 °C

Quick one: melting point for N#Cc1ccc2cccc(O)c2n1 ?
131 to 136 °C

* * *

melting point by entry:

Below are worked cases with known answers.
Smiles Code: Cc1nc(-c2cc(C(=O)Cl)no2)cs1
Result Value: 89 to 91 °C

Smiles Code: C1COCCOCCOCCOCCN1
Result Value: 35 to 37 °C

Quick one: melting point for CC(=O)Nc1ccc(Br)c(Cl)c1 ?
125 to 128 °C

Quick one: melting point for Cc1ccccc1CS(=O)(=O)Cl ?
52 to 53 °C

Quick one: melting point for O=C(O)CCC12CC3CC(CC(C3)C1)C2 ?
147 to 148 °C

Quick one: melting point for CCOC(=O)c1c(NC(=S)Nc2ccc(Cl)cc2)sc2c1CCN(Cc1ccccc1)C2 ?
169 to 172 °C

Quick one: melting point for CCCCOc1ccc(/N=N/c2ccc(CCCC)cc2)cc1 ?
64 to 66 °C

Quick one: melting point for O=C(O)c1cc2cnccc2nc1C(F)(F)F ?
233 to 235 °C

Quick one: melting point for O=C(Nc1nc2ccccc2s1)C(F)(F)C(F)(F)C(F)(F)C(F)(F)C(F)(F)C(F)(F)C(F)(F)C(F)(F)F ?
168 to 170 °C

* * *

melting point by entry:

Compound: Sc1ncnc2c1cnn2-c1ccccc1
melting point: 286 to 288 °C

Compound: O=C(COc1ccccc1)c1ccc(O)cc1O
melting point: 207 to 208 °C

Compound: COC(=O)c1sc(SC)c(C#N)c1N
melting point: 207 °C

Compound: Cc1ccccc1C=Cc1ccccc1C
melting point: 83 °C

Compound: Nc1cc(Cl)cnc1Br
melting point: 141 to 143 °C

Quick one: melting point for ClC=C(Cl)C(Cl)=CCl ?
-4 °C

Quick one: melting point for COc1ccc2c(OC(C)=O)c(OC)c(OC)c(OC(C)=O)c2c1 ?
77.5 °C

Quick one: melting point for Oc1cc(Cl)cc(Cl)c1O ?
82.5 °C

Quick one: melting point for Cc1csc2ncnc(NN)c12 ?
182 to 183 °C

Quick one: melting point for Brc1ccc(-c2ccccc2)s1 ?
83 to 85 °C

Quick one: melting point for CCOC=C(C#N)S(=O)(=O)c1ccc(Cl)cc1 ?
121 to 124 °C

Quick one: melting point for CC(C)(C)OC(=O)NC(Cc1cccs1)C(=O)O (stereo unspecified) ?
71 to 76 °C

Quick one: melting point for CN(C)c1cccc(N(C)C)c1C#N ?
71 to 73 °C

Quick one: melting point for N#Cc1ccc(O)c(Cl)c1 ?
150 to 153 °C

Quick one: melting point for CC1=CP(=O)(c2ccccc2)CC1 (stereo unspecified) ?
58 to 62 °C

Quick one: melting point for CCCCCCCCCCCCCCCCCCCc1ccccc1 ?
40 °C

* * *

Quantity Kind: melting point (°C)
All answers are understood in °C, so give the number only.

Compound: Cc1cc(C)c(N)c(C)c1N
melting point / °C: 90

Compound: CC(=O)OC1CC2(O)C(CCC3(C)C(c4ccc(=O)oc4)CCC32O)C2(C)CCC(OC3OC(CO)C(O)C(O)C3O)C=C12 (stereo not drawn)
melting point / °C: 169

Compound: COc1cccc2[nH]ccc12
melting point / °C: 70

Quick one: melting point for O=C(Nc1cccc(N=[N+]([O-])c2cccc(NC(=O)c3ccccc3)c2)c1)c1ccccc1 ?
247

Quick one: melting point for Oc1nc(S)c2nc[nH]c2n1 ?
300

Quick one: melting point for BrC(Br)(Br)c1ccc2cc3ccc(C(Br)(Br)Br)nc3cc2n1 ?
190

Quick one: melting point for CC12CCCC1C1CCC3CC(Cc4ccccc4)CCC3(C)C1CC2 (stereo not drawn) ?
148

Quick one: melting point for CC(=O)N1CCCCC1 ?
-13.4

Quick one: melting point for CC1CCC(C)(COC(=O)c2ccc([N+](=O)[O-])cc2)C1(C)C (stereo not drawn) ?
95

Quick one: melting point for OCC(F)(F)C(F)F ?
-15

Quick one: melting point for CC12CCC3C(CCC4CC5(CCC43C)OCCO5)C1CCC2O (stereo not drawn) ?
212

Quick one: melting point for Cc1ccc(/C=C2\CCC/C(=C\c3ccc(C)s3)C2=O)s1 ?
166

Quick one: melting point for CC(C)(C)C(=O)NNCc1ccccc1 ?
68.5

Quick one: melting point for CC(=O)c1ccc(C#N)c(S)n1 ?
210

Quick one: melting point for COc1ccc(C(=O)Cc2c(CCN(C)C)cc3c(c2OC)OCO3)c(C(=O)O)c1OC ?
138
